Source: PubChem BioAssay (NCI)

Recorded growth values for a group of compounds are listed next.
Tested on: MDA-MB-435 melanoma
measurement_notes: NCI-60 one-dose screen, 48 h (100 = growth as untreated, 0 = no growth, -100 = all killed)
test_conditions: 10 µM
About 83,000 compounds went through this panel and 20% of them were active in at least one assay; those are over-represented in the sample as a whole.
Provide the reading as a plain figure in %.

mol_smiles	unit_text	observed_result
CN(CC(=O)O)c1ccc(/C=C/c2ccnc3ccccc23)cc1	%	38.1
N#CC(=C1C=CC(=NO)C=C1)c1ccccc1	%	-20.7
Cc1c(-c2ccccc2)[nH]c2ccccc12	%	111
NCc1c(O)ccc2ccccc12	%	103

Please report the recorded growth for "O=S(=O)(c1cc(Cl)ccc1O)c1cc(Cl)ccc1O" . 93.4

====

Test system: IGROV1 ovarian
measurement_notes: NCI-60 one-dose screen, 48 h (100 = growth as untreated, 0 = no growth, -100 = all killed)
test_conditions: 10 µM
About 83,000 compounds went through this panel and 20% of them were active in at least one assay; those are over-represented in the sample as a whole.
metric: growth (%)
Expressed in %, but write only the number.

Guide cases for growth, answers given:
mol_smiles	growth [%]
Cc1cc(N=C2C=CC(=[N+](C)C)C=C2)c(N)cc1N	109
Cn1ncc2cc3c(Nc4ccc(Cl)cc4)cccc3nc21	95.8
Nc1nc(N)c2cc(Sc3ccc4ccccc4c3)ccc2n1	27.8

What growth value was documented for this compound, "CCC(=O)Oc1ccc(/C=N/NC(N)=S)nc1" ? 45

Fill in: growth of "COc1ccc2oc(-c3ccc(Cl)cc3)c(N3CCN(C)CC3)c2c1" is ___ -87.5

Query: growth; subject: "O=Nc1ccc(Nc2ccccc2)cc1" 102

Please report the recorded growth for "O=C(CNS(=O)(=O)Cc1ccccc1)NNc1ccccc1" . 65.5

====

Test system: RXF 393 renal
measurement_notes: NCI-60 one-dose screen, 48 h (100 = growth as untreated, 0 = no growth, -100 = all killed)
test_conditions: 10 µM
Compounds without any hit were thinned out: in the full panel of roughly 83,000, 20% have a hit. Calls of active or inactive are those of the source. Rule for the calls: active = growth percent below 10; inactive = the rest.
metric: growth

compound	growth
CC1CCC2(C(=O)O)CCC3(C)C(=CCC4C5(C)CC(O)C(O)C(C)(CO)C5C(O)CC43C)C2C1C (stereo unspecified)	26.2% (inactive)
O=S(=O)(c1cc(Cl)ccc1O)c1cc(Cl)ccc1O	102% (inactive)
COc1ccc(C(C#N)=C2C=CC(=NO)C=C2)cc1	113% (inactive)
CCC(C)(c1ccc(O)c(C)c1)c1ccc(O)c(C)c1	87.4% (inactive)

Requested read-out: growth. Entry: "O=[N+]([O-])c1cc(S(=O)(=O)Nc2ccccc2)ccc1Cl" 114% (inactive)

# lookup: growth of "O=c1[nH]cc(/C=N\Nc2ccccc2)c(=O)[nH]1" 111% (inactive)

# input compound: COc1cccc(C(c2cc3c(cc2O)OCO3)N2CCOCC2)c1OC (stereo unspecified) ; wanted: its growth 103% (inactive)

Form field: reported growth of "O=C(CNS(=O)(=O)Cc1ccccc1)NNc1ccccc1" 120% (inactive)

Recorded growth of "COc1cc(N)ccc1Nc1c2ccccc2nc2ccccc12" , please. 95.1% (inactive)

// growth lookup, key: "CCOC(=O)[C@]1(Br)CC[C@@]1(Br)C(=O)OCC" 111% (inactive)

Could you share which growth value was measured for "Nc1nc(N)c2cc(Sc3ccc4ccccc4c3)ccc2n1" ? 52.7% (inactive)

====

Test system: EKVX NSCLC
measurement_notes: NCI-60 one-dose screen, 48 h (100 = growth as untreated, 0 = no growth, -100 = all killed)
test_conditions: 10 µM
Protocol: Growth inhibition of the EKVX human Non-Small Cell Lung tumor cell line is measured as a screen for anti-cancer activity. Cells are grown in 96 well plates and exposed to the test compound for 48 hours. Compounds are tested at a single concentration, which is 10^-5 M for most compounds. The reported endpoint is percent growth (GI% or GIPRCNT), where numbers from 0 - 100% represent growth inhibition, and numbers from -100% - 0 represent cell death. […]
Compounds without any hit were thinned out: in the full panel of roughly 83,000, 20% have a hit.
metric: growth (%)
Your answer should be a plain number; it is taken to be in %.

Sample answers from the record:
molecule	system_name	unit_text	observed_result
Cc1cc(O)c2c(c1O)C(=O)C13C(=C2O)C(=O)C2C(O)C1C1C(O)C3C(=O)C3=C(O)c4c(O)cc(C)c(O)c4C(=O)C321 (stereo not drawn)	EKVX NSCLC	%	44.3
Cc1cc(N=C2C=CC(=[N+](C)C)C=C2)c(N)cc1N	EKVX NSCLC	%	85.4

Now consider a different molecule.
// query growth value for entry "Cn1c2nc3ccccc3c-2nc2ccccc21" 81.2

====

System: CCRF-CEM leukemia
measurement_notes: NCI-60 one-dose screen, 48 h (100 = growth as untreated, 0 = no growth, -100 = all killed)
test_conditions: 10 µM
About 83,000 compounds went through this panel and 20% of them were active in at least one assay; those are over-represented in the sample as a whole.
metric: growth (%)
Report the value in % with no unit label.

As a guide, the following entries are already answered.
compound	observed_result
Cc1cc(O)c2c(c1O)C(=O)C13C(=C2O)C(=O)C2C(O)C1C1C(O)C3C(=O)C3=C(O)c4c(O)cc(C)c(O)c4C(=O)C321 (stereo unspecified)	4.16
Cc1cc(Cl)ccc1NC(=O)/C(Cl)=C1/Sc2ccccc2NC1=O	76.5
Cn1ncc2cc3c(Nc4ccc(Cl)cc4)cccc3nc21	95.5
COc1ccc(N)c2c1C(=O)c1ccccc1C2=O	89.9
COc1ccc2oc(-c3ccc(Cl)cc3)c(N3CCN(C)CC3)c2c1	-12.6

Dear colleague, I am looking for the recorded growth of the following compound: "S=C1SCN(CCc2ccccc2)CN1CCc1ccccc1" 57.3

====

Tested on: NCI-H226 lung
measurement_notes: NCI-60 one-dose screen, 48 h (100 = growth as untreated, 0 = no growth, -100 = all killed)
test_conditions: 10 µM
The panel holds about 83,000 compounds, 20% with a hit somewhere; the sample as a whole holds those more often.
Lab note: compare growth with 70%, writing label 1 if less and label 0 if equal or more.

// below: answered molecules
molecule	class_label
CCOC(=O)[C@]1(Br)CC[C@@]1(Br)C(=O)OCC	label 0
O=Nc1ccc(Nc2ccccc2)cc1	label 0
CN(C)CCNc1cccc2sc3ccc(O)cc3c(=O)c12	label 0

Determine if "O=C(O)c1ccccc1.[Ag]" shows growth strictly lower than 70%. label 0

# strict comparison: is reported growth < 70%? input = "O=[N+]([O-])c1cc(S(=O)(=O)Nc2ccccc2)ccc1Cl" label 0

Determine whether this molecule shows growth lower than 70% (ties excluded): "COc1cc(N)ccc1Nc1c2ccccc2nc2ccccc12" label 0

Field: below-cutoff. Rule: recorded growth strictly less than 70%. Subject: "COc1ccc2c(c1)[nH]c1c(/C=C/c3ccccc3)nccc12" label 0

Below 70% on growth? Entry O=C1C(Cl)=C(Cl)C(Cl)(Cl)C(Cl)C1(Cl)Cl (stereo not drawn) label 0

For this molecule, is growth lower than 70%? "NCc1c(O)ccc2ccccc12" label 0

====

System: OVCAR-5 ovarian
measurement_notes: NCI-60 one-dose screen, 48 h (100 = growth as untreated, 0 = no growth, -100 = all killed)
test_conditions: 10 µM
Compounds without any hit were thinned out: in the full panel of roughly 83,000, 20% have a hit.
Recorded growth for the following molecules
Only the number, expressed in %, is required.

Examples from the recorded data:
mol_smiles	unit_text	observed_result
COc1cc(N)ccc1Nc1c2ccccc2nc2ccccc12	%	110
O=C1C=CC(=O)N1c1ccc(N2C(=O)C=CC2=O)cc1	%	97.7
NCc1c(O)ccc2ccccc12	%	96.9
COc1ccc(C(C#N)=C2C=CC(=NO)C=C2)cc1	%	137
O=S(=O)(c1cc(Cl)ccc1O)c1cc(Cl)ccc1O	%	116

Give the measured growth of "CN(CC(=O)O)c1ccc(/C=C/c2ccnc3ccccc23)cc1" . 123

Item "Cc1cc(N=C2C=CC(=[N+](C)C)C=C2)c(N)cc1N" has what recorded growth? 95.6

growth lookup needed for "Nc1nc(N)c2cc(Sc3ccc4ccccc4c3)ccc2n1" , thanks. 50.5

Endpoint output: growth of "COc1ccc(N)c2c1C(=O)c1ccccc1C2=O" . Value? 103

====

System: A498 renal
measurement_notes: NCI-60 one-dose screen, 48 h (100 = growth as untreated, 0 = no growth, -100 = all killed)
test_conditions: 10 µM
The panel holds about 83,000 compounds, 20% with a hit somewhere; the sample as a whole holds those more often.
Classify: 1 (yes) when growth is strictly less than 60%; 0 (no) when growth is not.

# count of solved cases: 3
mol_smiles	system_name	class_label
O=[N+]([O-])c1cc(S(=O)(=O)Nc2ccccc2)ccc1Cl	A498 renal	0 (no)
COc1ccc2c(c1)[nH]c1c(/C=C/c3ccccc3)nccc12	A498 renal	0 (no)
CCC(=O)Oc1ccc(/C=N/NC(N)=S)nc1	A498 renal	1 (yes)

Dear reviewer, please state whether "Cc1cc(N=C2C=CC(=[N+](C)C)C=C2)c(N)cc1N" has growth strictly beneath 60%. 0 (no)

Say whether its growth is strictly beneath 60%. Entry: "CN(CC(=O)O)c1ccc(/C=C/c2ccnc3ccccc23)cc1" 0 (no)
